The values you see were collected from ChEMBL document CHEMBL4196127.

Provide the recorded clearance for the entries that follow.
Assay: Clearance in cynomolgus monkey at 0.5 mg/kg, iv
Conditions: in vivo
One number for each entry, in mL/min/kg.

- Compound: "COc1ccc(F)c(-c2ccc(COc3cccc([C@@H](CC(=O)O)C4CC4)c3)cc2C2=CCCC2(C)C)c1"
  Data Value: 13.5

Next:
q: Assign clearance to the following record: CC[C@H](CC(=O)O)c1cccc(OCc2ccc(-c3cc(OC)ccc3F)c(C3CCCC3(C)C)c2)c1F (single isomer, unassigned)
a: 3.67

====

Target: Free fatty acid receptor 1 (Homo sapiens, UniProt O14842)
Sequence (O14842 whole entry): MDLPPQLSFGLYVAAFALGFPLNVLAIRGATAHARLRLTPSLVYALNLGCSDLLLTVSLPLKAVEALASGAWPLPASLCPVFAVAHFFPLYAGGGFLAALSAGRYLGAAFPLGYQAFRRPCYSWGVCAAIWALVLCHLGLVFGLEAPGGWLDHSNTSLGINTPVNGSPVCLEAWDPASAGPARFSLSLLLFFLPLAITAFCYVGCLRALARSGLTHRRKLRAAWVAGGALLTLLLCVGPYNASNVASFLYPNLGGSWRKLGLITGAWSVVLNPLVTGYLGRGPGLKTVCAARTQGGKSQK
Assay: Agonist activity at GPR40 (unknown origin) expressed in CHO cells incubated for 2 hrs measured over 20 secs in presence of human serum albumin by aequorin based luminescence assay
Observable: pEC50
Answers are plain numbers, as −log10 of the molar value.

As a guide, the following entries are already answered.
- Molecule: "COc1ccc(F)c(-c2ccc(COc3cccc([C@@H](CC(=O)O)C4CC4)c3)cc2C2CCCC2(C)C)c1 (mixture of isomers)"
  pEC50: 6.85
- Molecule: "CC[C@H](CC(=O)O)c1cccc(OCc2ccc(-c3cc(OC)ccc3F)c([C@@H]3CCCC3(C)C)c2)c1"
  pEC50: 7.10
- Molecule: "COc1ccc(F)c(-c2ccc(COc3cccc(CCC(=O)O)c3)cc2[C@@H]2CCCC2(C)C)c1"
  pEC50: 6.35

q: Look up and report measured pEC50 (Free fatty acid receptor 1 (Homo sapiens, UniProt O14842)) for the following molecule: CC[C@@H](CC(=O)O)c1cccc(OCc2ccc(-c3cc(OC)ccc3F)c([C@@H]3CCCC3(C)C)c2)c1
a: 5.71

====

Test system: Rattus norvegicus
Assay: Volume of distribution at steady state in rat at 0.5 mg/kg, iv
Conditions: in vivo
Observable: Vdss (L/kg)
Numbers only, in L/kg.

Consider the following items and state reported Vdss for each.
1. COc1ccc(F)c(-c2ccc(COc3cccc([C@@H](CC(=O)O)C4CC4)c3)cc2[C@@H]2CCCC2(C)C)c1
2. COc1ccc(F)c(-c2ccc(COc3cccc([C@@H](CC(=O)O)C4CC4)c3)cc2C2=CCCC2(C)C)c1
3. COc1ccc(F)c(-c2ccc(COc3cccc([C@@H](CC(=O)O)C4CC4)c3F)cc2[C@@H]2CCCC2(C)C)c1
4. CC[C@H](CC(=O)O)c1cccc(OCc2ccc(-c3cc(OC)ccc3F)c(C3CCCC3(C)C)c2)c1F (single isomer, unassigned)
5. CC[C@H](CC(=O)O)c1cccc(OCc2ccc(-c3cc(OC)ccc3F)c([C@@H]3CCCC3(C)C)c2)c1

a:
1.68
1.1
1.9
0.81
1.12

====

Provide the recorded pEC50 for the entries that follow.
Target: Free fatty acid receptor 1 (Homo sapiens)
Assay: Agonist activity at GPR40 (unknown origin) expressed in CHO cells incubated for 2 hrs measured over 20 secs in presence of human serum albumin by aequorin based luminescence assay
Format: functional, cell-based
Answers are plain numbers, as −log10 of the molar value.

As a guide, the following entries are already answered.
- Input Smiles: "CC[C@H](CC(=O)O)c1cc(OCc2ccc(-c3cc(OC)ccc3F)c([C@@H]3CCCC3(C)C)c2)ccc1F"
  Observable: "pEC50"
  Data Value: 6.68
- Input Smiles: "COc1ccc(F)c(-c2ccc(COc3cccc([C@@H](CC(=O)O)C4CCC4)c3)cc2[C@@H]2CCCC2(C)C)c1"
  Observable: "pEC50"
  Data Value: 7.05
- Input Smiles: "CC[C@H](CC(=O)O)c1cc(F)cc(OCc2ccc(-c3cc(OC)ccc3F)c([C@@H]3CCCC3(C)C)c2)c1"
  Observable: "pEC50"
  Data Value: 7.05

q: Assign pEC50 to the following record: COc1ccc(F)c(-c2ccc(COc3cccc([C@@H](CC(=O)O)C4CC4)c3)cc2[C@H]2CCCC2(C)C)c1
a: 6.51
